- Target Or System: GST-Rok (full length) (Bacillus subtilis subsp. subtilis str. …, UniProt O34857 1-191)
- Sequence: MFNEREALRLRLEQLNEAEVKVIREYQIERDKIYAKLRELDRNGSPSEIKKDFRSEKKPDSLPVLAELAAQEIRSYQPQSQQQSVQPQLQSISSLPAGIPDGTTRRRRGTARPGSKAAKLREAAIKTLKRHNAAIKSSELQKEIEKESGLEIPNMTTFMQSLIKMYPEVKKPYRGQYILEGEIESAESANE
- Protocol Details: protein binding microarray; high values mean tight binding
- Run Parameters: protein: recombinant; tags: GST (pTH5325, pDEST15-Magic modified); dsDNA, one strand shown
Over roughly 33,000 sequences, “e-score” has its median near -0.037; the highest 2% begin near 0.34. This excerpt belongs to a sample that is enriched for the highest values.
Kindly state binding signal for each of the entries shown.
Record the value in E-score, omitting the unit from your answer.

Record `AAAAATAC` , field binding signal: 0.32

Record `AATAGTAT` , field binding signal: 0.292

Record `CAAAATAC` , field binding signal: 0.351

Record `GGGCAGCA` , field binding signal: -0.184

Record `CAAAATAA` , field binding signal: 0.0897

Record `GTTTCCAA` , field binding signal: 0.0167

Record `GGTATAAA` , field binding signal: 0.383

Record `CCCAGGCA` , field binding signal: -0.18

Record `AAACATAG` , field binding signal: 0.247

Record `GGAAATAC` , field binding signal: 0.101

Record `CGTAGTAG` , field binding signal: 0.204

Record `GGTATATA` , field binding signal: 0.386

Record `GGTATAGA` , field binding signal: 0.222

Record `AACAGTAG` , field binding signal: 0.354

Record `ACGACCGC` , field binding signal: 0.0315

Record `AGAAGTAT` , field binding signal: 0.334

Record `GAAAATAA` , field binding signal: 0.145

Record `AATAGTAG` , field binding signal: 0.469

Record `AGTATATC` , field binding signal: 0.221

Record `CATATCGA` , field binding signal: 0.0224

Record `AGTAGGAA` , field binding signal: 0.231

Record `AGTATATA` , field binding signal: 0.451

---

- Target Or System: GST-Rok (full length) (Bacillus subtilis subsp. subtilis str. …, UniProt O34857 1-191)
- Sequence: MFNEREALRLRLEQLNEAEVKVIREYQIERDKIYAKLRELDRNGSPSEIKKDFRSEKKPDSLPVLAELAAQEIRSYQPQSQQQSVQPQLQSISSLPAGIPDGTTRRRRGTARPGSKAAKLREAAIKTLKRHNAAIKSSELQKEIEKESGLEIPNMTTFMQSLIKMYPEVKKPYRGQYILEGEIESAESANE
- Protocol Details: protein binding microarray; Rok is a gene silencer of Bacillus subtilis; high values mean tight binding
- Run Parameters: protein: recombinant; tags: GST (pTH5325, pDEST15-Magic modified); dsDNA, one strand shown
Over roughly 33,000 sequences, “e-score” has its median near -0.037; the highest 2% begin near 0.34. Only a selection was taken, and the highest values are over-represented in it overall.
Kindly state binding signal for each of the entries shown.
Record the value in E-score, omitting the unit from your answer.

Record `TACGTATA` , field binding signal: 0.35

Record `AAAAAGCT` , field binding signal: -0.0996

Record `GAACTCGC` , field binding signal: -0.0505

Record `GAGTTATA` , field binding signal: 0.222

Record `CGTCGTTC` , field binding signal: -0.0713

Record `CCTTCACA` , field binding signal: 0.0629

Record `GGTAGCTA` , field binding signal: 0.341

Record `AATAACCT` , field binding signal: 0.0317

Record `AAATGTAC` , field binding signal: 0.343

Record `ACAGTTAC` , field binding signal: 0.278

Record `AATATACT` , field binding signal: 0.395

Record `ACTATACT` , field binding signal: 0.26

Record `GGTACAAC` , field binding signal: -0.0759

Record `CCTAACTA` , field binding signal: 0.26

Record `ACTAGCTA` , field binding signal: 0.347

Record `AATAACTA` , field binding signal: 0.341

Record `AAGATGGT` , field binding signal: 0.0131

Record `GCTAACTA` , field binding signal: 0.341

Record `ACAGTGTA` , field binding signal: 0.268

Record `GTAAGCAA` , field binding signal: 0.0243

Record `ACTAACTA` , field binding signal: 0.348

Record `ACTAACTG` , field binding signal: 0.163

Record `TCACAGAA` , field binding signal: 0.0426

Record `ATTGAAGA` , field binding signal: 0.204

Record `CACTGCTA` , field binding signal: 0.106

Record `GGTAGCGA` , field binding signal: 0.0576

Record `GCTAACGA` , field binding signal: 0.123

Record `AAGTTACA` , field binding signal: 0.18

Record `ACGTTAGA` , field binding signal: 0.156

Record `TAGTTACA` , field binding signal: 0.349

Record `ATTGATCG` , field binding signal: 0.0726

Record `AAATGTAG` , field binding signal: 0.297

Record `CATTTCGG` , field binding signal: 0.0631

Record `GAGACTGA` , field binding signal: 0.0243

Record `GTCCTGTA` , field binding signal: -0.0798

Record `CAGTTACA` , field binding signal: 0.24

Record `AACCATCC` , field binding signal: -0.0159

Record `GAATAGGC` , field binding signal: -0.173

Record `TCATTCAA` , field binding signal: -0.111

Record `GACGTATA` , field binding signal: 0.212

Record `GAGCGAGA` , field binding signal: -0.17

Record `CAATGTAC` , field binding signal: 0.263

Record `ACTAACTC` , field binding signal: 0.12

Record `CGGCTATC` , field binding signal: -0.0522

Record `GCTAGCTA` , field binding signal: 0.156

Record `AATAACTG` , field binding signal: 0.195
